measureName: melting point

* CC1(C)C2CCC1(C)C(O)(c1ccccn1)C2 (stereo unspecified) | 60 to 61 °C
* COc1ccc(Cn2c(=O)c(=NNc3ccccc3)c(=O)n(CC34CC5CC(CC(C5)C3)C4)c3ccccc32)cc1 | 170 to 188 °C
* CSCc1c(N)c(Br)cc(F)c1F | 60 to 61 °C

Prompt: I'd like to know its melting point. The molecule in question is CS(=O)(=O)OC1=C(C(=O)O)N2C(=O)[C@@H](NC(=O)Cc3ccccc3)[C@H]2CN1 (racemic)
Completion: 115 to 117 °C

Prompt: I'd like to know its melting point. The molecule in question is COc1ccccc1-n1c(CCl)nc2ccccc2c1=O
Completion: 193 to 194 °C

Prompt: I'd like to know its melting point. The molecule in question is CCOCC(COCC)Oc1ccc(/C=C/CO)c(Oc2ncc(C(F)(F)F)cc2Cl)c1
Completion: 52.5 to 54.5 °C

Prompt: I'd like to know its melting point. The molecule in question is Cc1ccccc1COCC1OC(n2cc(C(F)(F)F)c(=O)[nH]c2=O)CC1O (stereo unspecified)
Completion: 178 to 179 °C

Prompt: I'd like to know its melting point. The molecule in question is COC(=O)c1ccn2cc(Cc3cccc(F)c3C)c(-c3ccccc3)c2c1
Completion: 55 °C

Prompt: I'd like to know its melting point. The molecule in question is O=c1c2c(CC3CCOCC3)n[nH]c2c2cccnc2n1-c1ccccc1
Completion: 228 to 234 °C

Prompt: I'd like to know its melting point. The molecule in question is COc1nc(SC)cc2cnc(-c3ccccc3)n12
Completion: 134 °C

Prompt: I'd like to know its melting point. The molecule in question is CCC1CC(=O)Nc2c1cnn2CC (stereo unspecified)
Completion: 203 to 204 °C

Prompt: I'd like to know its melting point. The molecule in question is CN=C1N(c2c(C)cccc2C)CCN1c1c(C)cccc1C
Completion: 180 to 181 °C

Prompt: I'd like to know its melting point. The molecule in question is CC(=O)N1Cc2c(-c3noc(C4CC4)n3)ncn2-c2ccccc21
Completion: 187 to 188 °C

Prompt: I'd like to know its melting point. The molecule in question is CCCc1ccc(Oc2ccc3c(c2)C=C(C(=O)O)CCS3(=O)=O)cc1
Completion: 147 to 149 °C

Prompt: I'd like to know its melting point. The molecule in question is N#Cc1cc(C#N)cc(Oc2c(C3CC3)n[nH]c2C2CC2)c1
Completion: 168 to 170 °C

Prompt: I'd like to know its melting point. The molecule in question is O=c1cc2c(nn1-c1ccc(Cl)cc1)-c1cc(CO)sc1CC2
Completion: 195 to 197 °C

Prompt: I'd like to know its melting point. The molecule in question is CCCC=Nc1cc(CO)cc(Nc2c3ccccc3nc3ccccc23)c1
Completion: 228 to 230 °C

Prompt: I'd like to know its melting point. The molecule in question is Fc1ccc(C=Nc2nc3ccc(Cl)cc3s2)cc1
Completion: 168 to 169 °C

Prompt: I'd like to know its melting point. The molecule in question is CC1OC(n2c(Cl)nc3cc(Cl)c(Cl)cc32)C(O)C1O (stereo unspecified)
Completion: 85 to 86 °C

Prompt: I'd like to know its melting point. The molecule in question is Cc1cccc(C)c1/N=C1\SCC(=O)N1/N=C/c1ccc(-c2ncn(-c3ccc(OC(F)(F)F)cc3)n2)cc1
Completion: 209 to 213 °C

Prompt: I'd like to know its melting point. The molecule in question is CCOC(=O)c1c(Br)nn(C)c1S(N)(=O)=O
Completion: 96 to 98 °C
